Values compiled from patent US7888527B2.

experimental-system: human S1P1 receptor (Homo sapiens, UniProt P21453)
Sequence (P21453 whole entry): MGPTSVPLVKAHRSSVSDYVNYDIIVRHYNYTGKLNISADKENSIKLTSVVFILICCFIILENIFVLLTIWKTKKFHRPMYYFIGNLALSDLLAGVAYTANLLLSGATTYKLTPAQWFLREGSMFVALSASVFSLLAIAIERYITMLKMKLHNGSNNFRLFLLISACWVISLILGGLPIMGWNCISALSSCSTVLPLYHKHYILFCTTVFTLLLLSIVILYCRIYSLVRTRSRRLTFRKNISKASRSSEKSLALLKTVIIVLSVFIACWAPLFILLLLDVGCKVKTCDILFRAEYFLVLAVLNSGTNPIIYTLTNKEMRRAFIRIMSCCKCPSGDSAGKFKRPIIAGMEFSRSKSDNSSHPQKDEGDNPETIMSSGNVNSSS
protocol-notes: [γ-35S]GTP binding assay, HEK293T membranes (agonism and Schild antagonism)
Format: biochemical
Set-up: expressed in transfected cells; host or cells: HEK293T, transient transfection; membranes
reported-conditions: -log molar concentration giving 50% of maximal [γ-35S]GTP binding; ± S.E.M.; read-out: pEC50 S1P1 (converted)
experimental-readout: EC50 (nM)
Give bare numbers, in nM.

compound=CCCCCCCCCc1cccc(NC(=O)[C@H](N)COP(=O)(O)O)c1 number=676
compound=CCCCCCCCCCc1cccc(NC(=O)[C@H](N)COP(=O)(O)O)c1 number=81.3

Batch lookup, EC50 per entry.
1. CCCCCCCCCCCCC/C=C/[C@@H](O)[C@@H](N)COP(=O)(O)O [Compound S1P, Sphingosine 1-phosphate, reference compound]
2. CCCCCCCCc1cccc(NC(=O)[C@@H](N)COP(=O)(O)O)c1

1. 4.07
2. 2.24
